# System: Aspergillus clavatus
# assay.notes: Antifungal activity against Aspergillus clavatus MTCC 323 after overnight incubation by broth microdilution method
# Assay type: functional
The following compounds are shown together with reported MIC99 values.
readout: MIC99 (µg/mL)

chemical_smiles=Clc1ccc(-c2nnc(-c3cccnc3)n2Nc2nc3c(Cl)cccc3s2)cc1 readout=MIC99 cmp== numeric_result=500
chemical_smiles=Clc1ccc(-c2nnc(-c3cccnc3)n2Nc2nc3ccc(Br)cc3s2)cc1 readout=MIC99 cmp== numeric_result=1000
chemical_smiles=Fc1ccc2nc(Nn3c(-c4ccc(Cl)cc4)nnc3-c3cccnc3)sc2c1 readout=MIC99 cmp== numeric_result=500
chemical_smiles=COC1=CC(=O)C[C@@H](C)[C@]12Oc1c(Cl)c(OC)cc(OC)c1C2=O readout=MIC99 cmp== numeric_result=100
chemical_smiles=Cc1cccc2sc(Nn3c(-c4ccc(Cl)cc4)nnc3-c3cccnc3)nc12 readout=MIC99 cmp== numeric_result=500
chemical_smiles=Clc1ccc(-c2nnc(-c3cccnc3)n2Nc2nc3ccc(Cl)cc3s2)cc1 readout=MIC99 cmp== numeric_result=1000
chemical_smiles=O=[N+]([O-])c1cccc2sc(Nn3c(-c4ccc(Cl)cc4)nnc3-c3cccnc3)nc12 readout=MIC99 cmp== numeric_result=500
chemical_smiles=Clc1ccc(-c2nnc(-c3cccnc3)n2Nc2nc3cc(Cl)c(Cl)cc3s2)cc1 readout=MIC99 cmp== numeric_result=1000
chemical_smiles=O=[N+]([O-])c1ccc2nc(Nn3c(-c4ccc(Cl)cc4)nnc3-c3cccnc3)sc2c1 readout=MIC99 cmp=> numeric_result=1000

* * *

# assay.notes: Cytotoxicity against Homo sapiens (human) MT4 cells after 5 days by MTT assay
# Format: cell-based
The following molecules are shown together with reported CC50 at 120 h values.
readout: CC50 at 120 h (µg/mL)

chemical_smiles=COc1ccc2nc(Nn3c(-c4ccc([N+](=O)[O-])cc4)nnc3-c3cccnc3)sc2c1 readout="CC50 at 120 h" unit_text=µg/mL cmp== numeric_result=12.9
chemical_smiles=NNc1nc2c(Cl)cccc2s1 readout="CC50 at 120 h" unit_text=µg/mL cmp== numeric_result=117
chemical_smiles=Cc1ccc2nc(Nn3c(-c4ccc([N+](=O)[O-])cc4)nnc3-c3cccnc3)sc2c1 readout="CC50 at 120 h" unit_text=µg/mL cmp== numeric_result=64.4
chemical_smiles=NNc1nc2ccc(Br)cc2s1 readout="CC50 at 120 h" unit_text=µg/mL cmp== numeric_result=8.01
chemical_smiles=NNc1nc2ccc(Cl)cc2s1 readout="CC50 at 120 h" unit_text=µg/mL cmp== numeric_result=2.48
chemical_smiles=O=[N+]([O-])c1cccc2sc(Nn3c(-c4ccc(Cl)cc4)nnc3-c3cccnc3)nc12 readout="CC50 at 120 h" unit_text=µg/mL cmp== numeric_result=21.3
chemical_smiles=COc1ccc2nc(Nn3c(-c4ccc(Cl)cc4)nnc3-c3cccnc3)sc2c1 readout="CC50 at 120 h" unit_text=µg/mL cmp== numeric_result=66.8
chemical_smiles=O=[N+]([O-])c1ccc(-c2nnc(-c3cccnc3)n2Nc2nc3ccc(F)cc3s2)cc1 readout="CC50 at 120 h" unit_text=µg/mL cmp=≥ numeric_result=108
chemical_smiles=O=[N+]([O-])c1ccc(-c2nnc(-c3cccnc3)n2Nc2nc3c(Cl)cccc3s2)cc1 readout="CC50 at 120 h" unit_text=µg/mL cmp== numeric_result=15.6
chemical_smiles=Clc1ccc(-c2nnc(-c3cccnc3)n2Nc2nc3c(Cl)cccc3s2)cc1 readout="CC50 at 120 h" unit_text=µg/mL cmp== numeric_result=27.2
chemical_smiles=O=[N+]([O-])c1ccc(-c2nnc(-c3cccnc3)n2Nc2nc3ccc(Br)cc3s2)cc1 readout="CC50 at 120 h" unit_text=µg/mL cmp== numeric_result=13.2
chemical_smiles=NNc1nc2ccc([N+](=O)[O-])cc2s1 readout="CC50 at 120 h" unit_text=µg/mL cmp== numeric_result=12.8
chemical_smiles=Cc1ccc2nc(NN)sc2c1 readout="CC50 at 120 h" unit_text=µg/mL cmp== numeric_result=4.52
chemical_smiles=NNc1nc2ccc(F)cc2s1 readout="CC50 at 120 h" unit_text=µg/mL cmp== numeric_result=13.8
chemical_smiles=Cc1cccc2sc(Nn3c(-c4ccc(Cl)cc4)nnc3-c3cccnc3)nc12 readout="CC50 at 120 h" unit_text=µg/mL cmp== numeric_result=36.5
chemical_smiles=O=[N+]([O-])c1ccc2nc(Nn3c(-c4ccc(Cl)cc4)nnc3-c3cccnc3)sc2c1 readout="CC50 at 120 h" unit_text=µg/mL cmp== numeric_result=62.1
chemical_smiles=NNc1nc2c([N+](=O)[O-])cccc2s1 readout="CC50 at 120 h" unit_text=µg/mL cmp== numeric_result=14.5
chemical_smiles=Clc1ccc(-c2nnc(-c3cccnc3)n2Nc2nc3ccc(Br)cc3s2)cc1 readout="CC50 at 120 h" unit_text=µg/mL cmp== numeric_result=29.6
chemical_smiles=O=[N+]([O-])c1ccc(-c2nnc(-c3cccnc3)o2)cc1 readout="CC50 at 120 h" unit_text=µg/mL cmp== numeric_result=73.5
chemical_smiles=Cc1cccc2sc(Nn3c(-c4ccc([N+](=O)[O-])cc4)nnc3-c3cccnc3)nc12 readout="CC50 at 120 h" unit_text=µg/mL cmp== numeric_result=13.5
chemical_smiles=O=[N+]([O-])c1ccc(-c2nnc(-c3cccnc3)n2Nc2nc3c([N+](=O)[O-])cccc3s2)cc1 readout="CC50 at 120 h" unit_text=µg/mL cmp== numeric_result=13.8
chemical_smiles=Fc1ccc2nc(Nn3c(-c4ccc(Cl)cc4)nnc3-c3cccnc3)sc2c1 readout="CC50 at 120 h" unit_text=µg/mL cmp== numeric_result=92.9
